# Test system: HIV-1 RF
# procedureSummary: Syncytium-forming assay (Syncytia assay), antiviral activity
# Assay type: cell-based
# experimentalSetup: Human immunodeficiency virus 1, Table IV; Syncytia Assay; MOI 0.016; read-out: EC₅₀
assayEndpoint: pEC50
Bear in mind: pEC50 is minus log10 of a mol/L concentration; give just that figure.

(Q) # get_value(readout='pEC50', item= Cc1cn([C@H]2C[C@H](N=[N+]=[N-])[C@@H](CO)O2)c(=O)[nH]c1=O [AZT, 3'-azido-3'-deoxythymidine, reference compound] )
(A) 7.15

Taken from patent EP0695746A2.
